- experimental system: MAST1, Q9Y2H9
- Sequence (Q9Y2H9 962-1065): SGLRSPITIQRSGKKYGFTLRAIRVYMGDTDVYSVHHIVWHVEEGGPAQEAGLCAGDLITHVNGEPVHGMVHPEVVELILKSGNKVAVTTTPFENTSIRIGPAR
- test details: holdup assay
- Design: key: below the threshold = too weak to quantify, mostly under pKd 3.1 to 4
- assay context: plain residues with an end cap or a label only (N-terminal biotin on a linker: ado-ado)
result type: pKd

[[record]]
binder = "IGHEDLETAV [DGKI, O75912]"
test_result = 4.89

[[record]]
binder = "EFKQTSSFLV [JAM1, Q9Y624]"
test_result = 3.56

[[record]]
binder = "PAALPESTHM [SLC9A3, P48764]"
test_result = 4.63

[[record]]
binder = "QRYPGNQTTC [CCL24, O00175]"
test_result = 4.14

[[record]]
binder = "DFKHTKSFII [JAM2, P57087]"
test_result = 3.7

[[record]]
binder = "LLQEEWETVM [PTH1R, Q03431]"
test_result = 5.01

[[record]]
binder = "PDSYHRRDFW [U2AF2, P26368]"
test_result = 3.49

[[record]]
binder = "VISSDDLTEL [CAPN6, Q9Y6Q1]"
test_result = 4.99

[[record]]
binder = "THREVKFTSL [CD46, P15529]"
test_result = 4.81

[[record]]
binder = "AHGSTRDQSI [KCNB1, Q14721]"
test_result = 3.69

[[record]]
binder = "EAVTVESTSL [SLC22A11, Q9NSA0]"
test_result = 5.07

[[record]]
binder = "DSEEELPTRL [GRK6, P43250]"
test_result = 4.19

[[record]]
binder = "QKASRNESTF [POLR1D, P0DPB6]"
test_result = 4.08

[[record]]
binder = "RGKNRRQSIF [CDK18, Q07002]"
test_result = 4.15

[[record]]
binder = "RSPVATATSC [DUSP5, Q16690]"
test_result = 3.81

[[record]]
binder = "GVHSNDHSVV [LPAR1, Q92633]"
test_result = 3.89

[[record]]
binder = "NSTHNLKDYV [CLDN20, P56880]"
test_result = 3.65

[[record]]
binder = "NTALVESEDL [PALLS, Q8WX93;Q8WX93-1]"
test_result = 4.56

[[record]]
binder = "PEKVSNTTVV [IGSF5, Q9NSI5]"
test_result = 4.53

[[record]]
binder = "KEKASTETEC [TRPM1, Q7Z4N2]"
test_result = 4.09

[[record]]
binder = "FLVTEFNVML [DFNB31, Q9P202]"
test_result = 3.89

[[record]]
binder = "NKSEPFLTWL [WWTR1, Q9GZV5]"
test_result = 4.25

[[record]]
binder = "GQNMTVSVVI [PRLHR, P49683]"
test_result = 3.9

[[record]]
binder = "PKSNSSKEYV [CLDN7, O95471]"
test_result = 3.62

[[record]]
binder = "AKADAQESRL [PLCB2, Q00722]"
test_result = 4.85

